- Test system: Enterococcus faecalis
- assay_comment: Antibiofilm activity against Enterococcus faecalis ATCC 29212 biofilms incubated at 37 degC for 16 hrs
- Assay type: functional
- applied_conditions: ATCC 29212, 16 h
measurement_name: MIC (µg/mL)

The cases that follow already have their MIC on record.
molecule	MIC / µg/mL
Cn1c(C(=O)NN2C(=O)CCSC2c2ccc([N+](=O)[O-])cc2)cc(Br)c1Br (centres undefined)	25
Cn1c(C(=O)NN2C(=O)CCSC2C/C=C/c2ccccc2)cc(Br)c1Br (centres undefined)	50
Cn1c(C(=O)NN2C(=O)CCSC2c2ccc(F)cc2)cc(Br)c1Br (centres undefined)	25

(I) COc1ccc(C2SCCC(=O)N2NC(=O)c2cc(Br)c(Br)n2C)cc1 (centres undefined)
(II) Cn1c(C(=O)NN2C(=O)CSC2c2ccccc2)cc(Br)c1Br (centres undefined)
(III) COc1ccc(C2SCC(=O)N2NC(=O)c2cc(Br)c(Br)n2C)cc1 (centres undefined)
Sequence the entries by MIC, beginning with the highest number. A ranking is expressed here by listing the labels in the requested order.
I, II, III

(P) COc1ccc(C2SCCC(=O)N2NC(=O)c2cc(Br)c(Br)n2C)cc1O (centres undefined)
(Q) Cn1c(C(=O)NN2C(=O)CSC2c2ccc(Cl)cc2)cc(Br)c1Br (centres undefined)
(R) Cn1c(C(=O)NN2C(=O)CSC2C/C=C/c2ccccc2)cc(Br)c1Br (centres undefined)
List these items ordered by MIC, big to small. Sort the labels as requested; that list is your answer.
P, Q, R
(P: 25 µg/mL, Q: 12.5 µg/mL, R: 6.25 µg/mL)

(a) Cn1c(C(=O)NN2C(=O)CSC2c2ccc(F)cc2)cc(Br)c1Br (centres undefined)
(b) Cn1c(C(=O)NN2C(=O)CCSC2c2ccc(Cl)cc2)cc(Br)c1Br (centres undefined)
Select one. Lower MIC: a or b Choose, then provide that item's label.
a
(a: 12.5 µg/mL, b: 25 µg/mL)

(A) COc1ccc(C2SCC(=O)N2NC(=O)c2cc(Br)c(Br)n2C)c(O)c1 (centres undefined)
(B) COc1ccc(C2SCCC(=O)N2NC(=O)c2cc(Br)c(Br)n2C)c(O)c1 (centres undefined)
Lower value of MIC belongs to which: A or B ? Kindly state the label of the option you pick.
A

(P) COc1ccc(C2SCC(=O)N2NC(=O)c2cc(Br)c(Br)n2C)cc1O (centres undefined)
(Q) Cn1c(C(=O)NN2C(=O)CCSC2c2cc(O)ccc2O)cc(Br)c1Br (centres undefined)
Given the two records P and Q , choose the one whose MIC value is lower. # reply format: chosen label
P
(P: 12.5 µg/mL, Q: 25 µg/mL)

(P) Cn1c(C(=O)NN2C(=O)CCSC2c2ccccc2)cc(Br)c1Br (centres undefined)
(Q) Cn1c(C(=O)NN2C(=O)CSC2c2ccc([N+](=O)[O-])cc2)cc(Br)c1Br (centres undefined)
// pick min by MIC: P , Q Choose, then provide that item's label.
Q
(Q: 12.5 µg/mL, P: 25 µg/mL)

Each recorded value in this set is attributed to ChEMBL document CHEMBL2203132.
